test: LD50 determined on rats after oral administration; conditions: rat, in vivo
Reported LD50 is given for each of the following compounds.
attributeMeasured: LD50 (mg/kg)

- compound: "COc1ccc2c(c1)c(CC(=O)O)c(C)n2C(=O)c1ccc(Cl)cc1 [Indomethacine, reference compound]"
  testValue: 20
- compound: "Cc1cccc(C)c1N1CC(C)N(c2c(C)cccc2C)C1=N.O=C(O)/C=C/C(=O)O (centres unmarked)"
  testValue: 150
